Origin of measurements: patent US20150218285A1

Target: T1, CAPRIN-1 protein on the cell surface of human cancer cells (human, UniProt Q14444 2-709)
T1 sequence (looked up): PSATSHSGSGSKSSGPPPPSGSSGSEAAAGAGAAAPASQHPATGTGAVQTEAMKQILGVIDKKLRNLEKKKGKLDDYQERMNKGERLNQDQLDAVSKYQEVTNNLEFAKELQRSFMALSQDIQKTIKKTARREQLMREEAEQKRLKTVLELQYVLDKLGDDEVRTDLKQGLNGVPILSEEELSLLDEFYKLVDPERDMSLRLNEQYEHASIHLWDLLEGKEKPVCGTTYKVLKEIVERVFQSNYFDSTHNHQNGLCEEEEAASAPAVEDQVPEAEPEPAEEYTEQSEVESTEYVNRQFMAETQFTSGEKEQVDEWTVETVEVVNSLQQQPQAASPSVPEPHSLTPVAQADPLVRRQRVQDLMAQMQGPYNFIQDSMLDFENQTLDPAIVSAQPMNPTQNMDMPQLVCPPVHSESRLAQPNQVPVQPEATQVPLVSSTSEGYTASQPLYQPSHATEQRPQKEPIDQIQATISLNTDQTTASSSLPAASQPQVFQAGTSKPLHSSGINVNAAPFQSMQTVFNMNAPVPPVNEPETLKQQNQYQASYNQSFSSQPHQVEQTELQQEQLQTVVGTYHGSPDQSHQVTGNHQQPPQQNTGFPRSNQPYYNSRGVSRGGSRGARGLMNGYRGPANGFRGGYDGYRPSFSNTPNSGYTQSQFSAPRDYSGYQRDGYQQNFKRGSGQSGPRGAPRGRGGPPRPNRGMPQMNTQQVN
Experiment: cell-based or functional assay
metric name: ADCC activity on Hep3B, HepG2, SK-Hep-1, SW480

binder	value reported
human-mouse chimeric anti-CAPRIN-1 antibody #25 (antibody, human IgG1, kappa, V domains shown) VH: GPGLVQPSQSLSITCTVSGFSLTTYDLHWVRQSPGKGLEWLGVIWSGGSTDYNAAFISRLSISKDNSKSQVFFKMNSLQANDTAIYYCARNYGYSAWFAYWGQGTLVTVSA VL: DVLMTQTPLSLPVSLGDQASISCRSSQSIVHSNGNTYLEWYLQKPGQSPKLLIYKVSNRFSGVPDRFSGSGSGTDFTLKISRVEAEDLGVYYCFQGSHVPLTFGAGTKLELKR	≥ 20%
human-mouse chimeric anti-CAPRIN-1 antibody #28 (antibody, human IgG1, kappa, V domains shown) VH: GPDLVKPGASVKISCKASGYSFTAYYMHWVKQSHGKSLEWIGRVNPNNGGTTYNQKFKGKAILTVDKSSSTAYMELRSLTFEDSAVYYCARRIYYGYFDYWGQGTTVTVSS VL: AFFAVSLGQRATISCKASQSVDYDGDSYMNWYQQKPGQPPKLLIYVASNLESGVPARFSGSGSGTDFTLNIHPVEEEDAATYYCQQSNEDPYTFGGGTKLEIKQ	≥ 20%
human-mouse chimeric anti-CAPRIN-1 antibody #27 (antibody, human IgG1, kappa, V domains shown) VH: GGGLVQPGGSMRLSCVASGFTFSNSWFNWVRQSPEKGLEWVAEIRLTSDNYAIYYAESVKGRFTISRDDSKSSVYLQMNNLRAEDTGIYYCTRPETARATFAYWGQGTTVTVSS VL: DVLMTQTPLSLPVSLGDQASISCRSSQSIVHSNGNTYLEWYLQKPGQSPKVLIYKVFNRFSGVPDRFSGSGSGTDFTLKISRVEAEDLGVYYCFQGSHVPRTFGGGTKLNQTG	≥ 20%

Proceeding to the next binder to report its ADCC activity on Hep3B, HepG2, SK-Hep-1, SW480.
What ADCC activity on Hep3B, HepG2, SK-Hep-1, SW480 value was documented for this binder, human-mouse chimeric anti-CAPRIN-1 antibody #23 (antibody, human IgG1, kappa, V domains shown) VH: GGGLVKPGGSLKLSCAASGFTFSSYGMSWVRQTPEKRLEWVATISSGGSYTYYPDSVKGRFTISRDNAKNTLYLQMSSLRSEDTAMYYCASLASYYFDYWGQGTTLTVSS VL: GARCDVQMIQSPSSLSASLGDIVTMTCQASQGTSINLNWFQQKPGKAPKLLIYGASSLEDGVPSRFSGSCFGTDFTLTISSLEDEDMATYFCLQHSYLPPLTFGAGTKLELKR ? ≥ 20%
